Data origin: ChEMBL document CHEMBL6109090

Some compounds, each annotated with its measured Kd.
# EXPERIMENT_DESCRIPTION: Binding affinity to Syntenin PDZ1 domain (unknown origin) assessed as dissociation constant by MST analysis
# Design: species or system Homo sapiens
Non-standard residues stand in square brackets, D forms with d. Residues, ends and D or L forms follow the SMILES beside them. Phg = N[C@H](C(=O)O)c1ccccc1
Reply with the number, then its unit.

Some solved entries appear below for comparison.
According to the records, this compound CC[C@H](C)[C@H](NC(=O)[C@H](CC(=O)O)NC(=O)[C@@H](NC(=O)[C@@H](NC(=O)[C@H](Cc1c[nH]c2ccccc12)NC(=O)[C@@H](CCCCN)NC(=O)[C@H](C)NC(C)=O)C(C)C)c1ccccc1)C(N)=O displays Kd of 9.07 nM

// field: Kd; key: CC[C@H](C)[C@H](NC(=O)[C@H](CC(=O)O)NC(=O)[C@@H](NC(=O)[C@@H](NC(=O)[C@H](Cc1c[nH]c2ccccc12)NC(=O)[C@H](NC(=O)[C@@H](NC(C)=O)[C@@H](C)O)C(C)C)C(C)C)c1ccccc1)C(N)=O ; value = 15.2 nM

The compound listed as CC[C@H](C)[C@H](NC(=O)[C@H](CC(=O)O)NC(=O)[C@@H](NC(=O)[C@@H](NC(=O)[C@H](Cc1c[nH]c2ccccc12)NC(=O)[C@H](CCCCN)NC(=O)[C@@H](NC(C)=O)[C@@H](C)O)C(C)C)c1ccccc1)C(N)=O (Ac-TKWV[Phg]DI-NH2) shows Kd equal to 6.15 nM

For this compound ( CC[C@H](C)[C@H](NC(=O)[C@H](CC(=O)O)NC(=O)[C@@H](NC(=O)[C@@H](NC(=O)[C@H](Cc1c[nH]c2ccccc12)NC(=O)[C@H](Cc1cnc[nH]1)NC(=O)[C@H](CO)NC(=O)[C@@H](CCCNC(=N)N)NC(=O)[C@H](CCCNC(=N)N)NC(=O)[C@@H](CCCNC(=N)N)NC(=O)[C@H](CCCNC(=N)N)NC(=O)[C@@H](CCCNC(=N)N)NC(=O)CNC(=O)[C@@H](CCCNC(=N)N)NC(=O)[C@H](CCCNC(=N)N)NC(=O)[C@@H](CCCNC(=N)N)NC(C)=O)C(C)(C)C)C1CCCCC1)C(=O)O ), measured Kd is 0.3 nM

Value of Kd reported for the compound CC[C@H](C)[C@H](NC(=O)[C@H](CC(=O)O)NC(=O)[C@H](NC(=O)[C@@H](NC(=O)[C@H](Cc1c[nH]c2ccccc12)NC(=O)[C@@H](CCCCN)NC(=O)[C@@H](NC(C)=O)[C@@H](C)O)C(C)C)C(C)C)C(N)=O is 19.7 nM

Next:
For this compound ( CC[C@H](C)[C@H](NC(=O)[C@@H](NC(=O)[C@@H](NC(=O)[C@@H](NC(=O)[C@H](Cc1c[nH]c2ccccc12)NC(=O)[C@@H](CCCCN)NC(=O)[C@@H](NC(C)=O)[C@@H](C)O)C(C)C)c1ccccc1)C(C)C)C(N)=O ), measured Kd is 28.3 nM

Record CC[C@H](C)[C@H](NC(=O)[C@H](CC(=O)O)NC(=O)[C@@H](NC(=O)[C@@H](NC(=O)[C@H](Cc1cnc[nH]1)NC(=O)[C@@H](CCCCN)NC(=O)[C@@H](NC(C)=O)[C@@H](C)O)C(C)C)c1ccccc1)C(N)=O , field Kd: 34.1 nM
